Reference source: ChEMBL document CHEMBL5370535

System: Klebsiella pneumoniae
assay name: Antibacterial activity against Klebsiella pneumoniae assessed as bacterial growth inhibition incubated for 24 hrs by CLSI based two serial dilution assay
Type: functional
// classify: if (MIC < 60 µM) criterion met else criterion not met

Observe how each entry below is paired with its result.
>  <molecule>
CCCCN1C(=O)/C(=N\Nc2nccs2)c2cc(Br)ccc21

>  <class name>
criterion not met

$$$$
>  <molecule>
CCCCCCN1C(=O)/C(=N\Nc2nccs2)c2ccccc21

>  <class name>
criterion met

$$$$
>  <molecule>
C#CCN1C(=O)/C(=N\Nc2nccs2)c2ccccc21

>  <class name>
criterion not met

$$$$
>  <molecule>
CCCCCN1C(=O)/C(=N\Nc2nccs2)c2ccccc21

>  <class name>
criterion met

$$$$
>  <molecule>
CCCCN1C(=O)/C(=N\Nc2nc(C)c(C(C)=O)s2)c2ccccc21

>  <class name>
criterion not met

$$$$

Data request: # check: MIC < 60 µM for CCCCN1C(=O)/C(=N\Nc2nccs2)c2cc(Cl)ccc21
Data returned: criterion met

Data request: Same thing, different molecule: O=C1/C(=N\Nc2nccs2)c2ccccc2N1Cc1ccc(F)cc1
Data returned: criterion met

Data request: How about CCCCN1C(=O)/C(=N\Nc2nc(C)c(C(=O)OCC)s2)c2ccccc21 ?
Data returned: criterion not met

Data request: Also check O=C1/C(=N\Nc2nccs2)c2ccccc2N1Cc1ccc(Cl)cc1
Data returned: criterion met

Data request: Can you handle CCCCN1C(=O)/C(=N\Nc2nccs2)c2cc(C)ccc21 next?
Data returned: criterion met

Data request: Also need CCCCN1C(=O)/C(=N\Nc2nccs2)c2c(Cl)cc(Cl)cc21 , thanks.
Data returned: criterion met

Data request: Moving on to the next molecule: CCCCN1C(=O)/C(=N\Nc2nc(C)cs2)c2ccccc21
Data returned: criterion met

Data request: Here is the next molecule: O=C1Nc2ccccc2/C1=N/Nc1nccs1
Data returned: criterion not met
